The reported measurements were obtained from patent US20240294541A1.

# System: SNU-16 (human gastric cancer)
# assay overview: cells
# Assay type: cell-based
# experimental parameters: Table 4; SNU-16 human gastric cancer cells; read-out: IC50 (nM) SNU-16
assay metric: IC50

INSERT INTO measurements (compound, assay_metric, value_observed) VALUES
  ('CC[C@@H](C(=O)[C@@H](C)[C@@H](O)[C@H](C)[C@@H]1O[C@@H]([C@@H](CC)C(=O)O)CC[C@@H]1C)[C@H]1O[C@]2(C=C[C@@H](NC(=O)Oc3ccccc3)[C@]3(CC[C@@](C)([C@H]4CC[C@](O)(CC)[C@H](C)O4)O3)O2)[C@H](C)C[C@@H]1C', 'IC50', '168 nM'),
  ('N.N.[Cl][Pt][Cl] [Cisplatin, cisplatin, reference compound]', 'IC50', '2330 nM'),
  ('CC[C@@H](C(=O)[C@@H](C)[C@@H](O)[C@H](C)[C@@H]1O[C@@H]([C@@H](CC)C(=O)O)CC[C@@H]1C)[C@H]1O[C@]2(C=C[C@@H](NC(=O)OCCF)[C@]3(CC[C@@](C)([C@H]4CC[C@](O)(CC)[C@H](C)O4)O3)O2)[C@H](C)C[C@@H]1C', 'IC50', '342 nM');

###

# Tested on: PFSK-1 (malignant primitive neuroectodermal tumour)
# assay overview: In vitro cytotoxicity, SRB assay, PFSK-1
# Format: cell-based
# experimental parameters: selectivity coefficient vs normal BALB/3T3 cells
assay metric: PFSK-1 SI

INSERT INTO results (cpd_smiles, assay_metric, value_observed) VALUES
  ('CCOC(=O)CNC(=S)N[C@@H]1C=C[C@]2(O[C@H]([C@@H](CC)C(=O)[C@@H](C)[C@@H](O)[C@H](C)[C@@H]3O[C@@H]([C@@H](CC)C(=O)O)CC[C@@H]3C)[C@@H](C)C[C@H]2C)O[C@@]12CC[C@@](C)([C@H]1CC[C@](O)(CC)[C@H](C)O1)O2', 'PFSK-1 SI', 2.5),
  ('CC[C@@H](C(=O)[C@@H](C)[C@@H](O)[C@H](C)[C@@H]1O[C@@H]([C@@H](CC)C(=O)O)CC[C@@H]1C)[C@H]1O[C@]2(C=C[C@@H](NC(=S)Nc3ccc(Cl)cc3)[C@]3(CC[C@@](C)([C@H]4CC[C@](O)(CC)[C@H](C)O4)O3)O2)[C@H](C)C[C@@H]1C', 'PFSK-1 SI', 3.1),
  ('CC[C@@H](C(=O)[C@@H](C)[C@@H](O)[C@H](C)[C@@H]1O[C@@H]([C@@H](CC)C(=O)O)CC[C@@H]1C)[C@H]1O[C@]2(C=C[C@@H](NC(=S)Nc3cc(C(F)(F)F)cc(C(F)(F)F)c3)[C@]3(CC[C@@](C)([C@H]4CC[C@](O)(CC)[C@H](C)O4)O3)O2)[C@H](C)C[C@@H]1C', 'PFSK-1 SI', 7.4);

###

# Tested on: SNU-16 (human gastric cancer)
# assay overview: cells
# Assay type: cell-based
# experimental parameters: Table 4; SNU-16 human gastric cancer cells; read-out: IC50 (nM) SNU-16
Recorded measurements of IC50, one per entry
assay metric: IC50 (nM)

INSERT INTO assay_data (cpd_smiles, assay_metric, value_observed) VALUES
  ('CC[C@@H](C(=O)[C@@H](C)[C@@H](O)[C@H](C)[C@@H]1O[C@@H]([C@@H](CC)C(=O)O)CC[C@@H]1C)[C@H]1O[C@]2(C=C[C@@H](NC(=O)Nc3c(F)c(F)c(F)c(F)c3F)[C@]3(CC[C@@](C)([C@H]4CC[C@](O)(CC)[C@H](C)O4)O3)O2)[C@H](C)C[C@@H]1C', 'IC50', 114),
  ('CC[C@@H](C(=O)[C@@H](C)[C@@H](O)[C@H](C)[C@@H]1O[C@@H]([C@@H](CC)C(=O)O)CC[C@@H]1C)[C@H]1O[C@]2(C=C[C@@H](NC(=S)NC(C)C)[C@]3(CC[C@@](C)([C@H]4CC[C@](O)(CC)[C@H](C)O4)O3)O2)[C@H](C)C[C@@H]1C', 'IC50', 10.2),
  ('CC[C@@H](C(=O)[C@@H](C)[C@@H](O)[C@H](C)[C@@H]1O[C@@H]([C@@H](CC)C(=O)O)CC[C@@H]1C)[C@H]1O[C@]2(C=C[C@@H](NC(=O)C(=O)NCCCc3ccccc3)[C@]3(CC[C@@](C)([C@H]4CC[C@](O)(CC)[C@H](C)O4)O3)O2)[C@H](C)C[C@@H]1C', 'IC50', 323),
  ('CC[C@@H](C(=O)[C@@H](C)[C@@H](O)[C@H](C)[C@@H]1O[C@@H]([C@@H](CC)C(=O)O)CC[C@@H]1C)[C@H]1O[C@]2(C=C[C@@H](NC(=O)OCCCCCCCl)[C@]3(CC[C@@](C)([C@H]4CC[C@](O)(CC)[C@H](C)O4)O3)O2)[C@H](C)C[C@@H]1C', 'IC50', 105),
  ('CCCOC(=O)N[C@@H]1C=C[C@]2(O[C@H]([C@@H](CC)C(=O)[C@@H](C)[C@@H](O)[C@H](C)[C@@H]3O[C@@H]([C@@H](CC)C(=O)O)CC[C@@H]3C)[C@@H](C)C[C@H]2C)O[C@@]12CC[C@@](C)([C@H]1CC[C@](O)(CC)[C@H](C)O1)O2', 'IC50', 220),
  ('CC[C@@H](C(=O)[C@@H](C)[C@@H](O)[C@H](C)[C@@H]1O[C@@H]([C@@H](CC)C(=O)O)CC[C@@H]1C)[C@H]1O[C@]2(C=C[C@@H](NC(=O)Nc3ccc(Cl)c(Cl)c3)[C@]3(CC[C@@](C)([C@H]4CC[C@](O)(CC)[C@H](C)O4)O3)O2)[C@H](C)C[C@@H]1C', 'IC50', 1520),
  ('C=CCOC(=O)N[C@@H]1C=C[C@]2(O[C@H]([C@@H](CC)C(=O)[C@@H](C)[C@@H](O)[C@H](C)[C@@H]3O[C@@H]([C@@H](CC)C(=O)O)CC[C@@H]3C)[C@@H](C)C[C@H]2C)O[C@@]12CC[C@@](C)([C@H]1CC[C@](O)(CC)[C@H](C)O1)O2', 'IC50', 420);

###

Here the recorded SI A2780Cis is given for each entry.
# Test system: A2780Cis (cisplatin-resistant human ovarian cancer)
# assay overview: In vitro cytotoxicity, SRB assay, A2780Cis
# Format: cell-based
assay metric: SI A2780Cis

INSERT INTO assay_data (cpd_smiles, assay_metric, value_observed) VALUES
  ('CC[C@@H](C(=O)[C@@H](C)[C@@H](O)[C@H](C)[C@@H]1O[C@@H]([C@@H](CC)C(=O)O)CC[C@@H]1C)[C@H]1O[C@]2(C=C[C@@H](NC(=O)Nc3ccccc3)[C@]3(CC[C@@](C)([C@H]4CC[C@](O)(CC)[C@H](C)O4)O3)O2)[C@H](C)C[C@@H]1C', 'SI A2780Cis', 671.0),
  ('CC[C@@H](C(=O)[C@@H](C)[C@@H](O)[C@H](C)[C@@H]1O[C@@H]([C@@H](CC)C(=O)O)CC[C@@H]1C)[C@H]1O[C@]2(C=C[C@@H](NC(=O)C(=O)NCCc3ccccc3)[C@]3(CC[C@@](C)([C@H]4CC[C@](O)(CC)[C@H](C)O4)O3)O2)[C@H](C)C[C@@H]1C', 'SI A2780Cis', 76.0),
  ('CC[C@@H](C(=O)[C@@H](C)[C@@H](O)[C@H](C)[C@@H]1O[C@@H]([C@@H](CC)C(=O)O)CC[C@@H]1C)[C@H]1O[C@]2(C=C[C@@H](NC(=O)OCCN3CCOCC3)[C@]3(CC[C@@](C)([C@H]4CC[C@](O)(CC)[C@H](C)O4)O3)O2)[C@H](C)C[C@@H]1C', 'SI A2780Cis', 21.2),
  ('CC[C@@H](C(=O)[C@@H](C)[C@@H](O)[C@H](C)[C@@H]1O[C@@H]([C@@H](CC)C(=O)O)CC[C@@H]1C)[C@H]1O[C@]2(C=C[C@@H](NC(=O)OCCCCl)[C@]3(CC[C@@](C)([C@H]4CC[C@](O)(CC)[C@H](C)O4)O3)O2)[C@H](C)C[C@@H]1C', 'SI A2780Cis', 24.0),
  ('CC[C@@H](C(=O)[C@@H](C)[C@@H](O)[C@H](C)[C@@H]1O[C@@H]([C@@H](CC)C(=O)O)CC[C@@H]1C)[C@H]1O[C@]2(C=C[C@@H](NS(=O)(=O)c3cccs3)[C@]3(CC[C@@](C)([C@H]4CC[C@](O)(CC)[C@H](C)O4)O3)O2)[C@H](C)C[C@@H]1C', 'SI A2780Cis', 15.2),
  ('CC[C@@H](C(=O)[C@@H](C)[C@@H](O)[C@H](C)[C@@H]1O[C@@H]([C@@H](CC)C(=O)O)CC[C@@H]1C)[C@H]1O[C@]2(C=C[C@@H](NC(=O)OCCOCCOCCOCCOC)[C@]3(CC[C@@](C)([C@H]4CC[C@](O)(CC)[C@H](C)O4)O3)O2)[C@H](C)C[C@@H]1C', 'SI A2780Cis', 17.4),
  ('CC[C@@H](C(=O)[C@@H](C)[C@@H](O)[C@H](C)[C@@H]1O[C@@H]([C@@H](CC)C(=O)O)CC[C@@H]1C)[C@H]1O[C@]2(C=C[C@@H](NC(=O)C(=O)NCC3CC3)[C@]3(CC[C@@](C)([C@H]4CC[C@](O)(CC)[C@H](C)O4)O3)O2)[C@H](C)C[C@@H]1C', 'SI A2780Cis', 32.3);
